Molecular target: ABCG2 transporter (Homo sapiens, UniProt Q9UNQ0)
Sequence (Q9UNQ0 whole entry): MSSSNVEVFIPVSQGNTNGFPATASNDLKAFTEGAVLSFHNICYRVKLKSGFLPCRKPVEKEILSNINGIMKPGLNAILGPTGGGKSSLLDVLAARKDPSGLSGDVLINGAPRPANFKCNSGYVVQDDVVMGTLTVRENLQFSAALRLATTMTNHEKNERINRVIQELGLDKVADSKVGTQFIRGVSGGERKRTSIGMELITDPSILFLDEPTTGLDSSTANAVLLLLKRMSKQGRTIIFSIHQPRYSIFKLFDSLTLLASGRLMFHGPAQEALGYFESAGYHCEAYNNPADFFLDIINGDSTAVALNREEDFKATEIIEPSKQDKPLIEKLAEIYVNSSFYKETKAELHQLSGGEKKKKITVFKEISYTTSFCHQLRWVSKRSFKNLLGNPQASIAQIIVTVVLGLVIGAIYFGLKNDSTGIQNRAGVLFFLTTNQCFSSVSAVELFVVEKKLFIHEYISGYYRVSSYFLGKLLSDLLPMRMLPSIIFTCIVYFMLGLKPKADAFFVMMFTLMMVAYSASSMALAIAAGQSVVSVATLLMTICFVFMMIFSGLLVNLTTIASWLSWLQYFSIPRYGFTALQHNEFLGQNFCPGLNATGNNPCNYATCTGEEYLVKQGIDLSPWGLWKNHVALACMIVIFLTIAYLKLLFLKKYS
Assay: ATPase stimulation assay (ABCG2 expressed in High Five insect cells); supported by [3H]-mitoxantrone accumulation and efflux in S1-M1-80 cells
experimental-readout: pEC50
Numbers only, as −log10 of the molar value.

Fill blank: measured pEC50 of the compound C=CC(=O)N1CCC(Oc2cc3c(Nc4ccc(Cl)c(Cl)c4F)ncnc3cc2OC)CC1 is ____.
6.68

###

Biological target: ABCB1 transporter (Homo sapiens)
Sequence (P08183 whole entry): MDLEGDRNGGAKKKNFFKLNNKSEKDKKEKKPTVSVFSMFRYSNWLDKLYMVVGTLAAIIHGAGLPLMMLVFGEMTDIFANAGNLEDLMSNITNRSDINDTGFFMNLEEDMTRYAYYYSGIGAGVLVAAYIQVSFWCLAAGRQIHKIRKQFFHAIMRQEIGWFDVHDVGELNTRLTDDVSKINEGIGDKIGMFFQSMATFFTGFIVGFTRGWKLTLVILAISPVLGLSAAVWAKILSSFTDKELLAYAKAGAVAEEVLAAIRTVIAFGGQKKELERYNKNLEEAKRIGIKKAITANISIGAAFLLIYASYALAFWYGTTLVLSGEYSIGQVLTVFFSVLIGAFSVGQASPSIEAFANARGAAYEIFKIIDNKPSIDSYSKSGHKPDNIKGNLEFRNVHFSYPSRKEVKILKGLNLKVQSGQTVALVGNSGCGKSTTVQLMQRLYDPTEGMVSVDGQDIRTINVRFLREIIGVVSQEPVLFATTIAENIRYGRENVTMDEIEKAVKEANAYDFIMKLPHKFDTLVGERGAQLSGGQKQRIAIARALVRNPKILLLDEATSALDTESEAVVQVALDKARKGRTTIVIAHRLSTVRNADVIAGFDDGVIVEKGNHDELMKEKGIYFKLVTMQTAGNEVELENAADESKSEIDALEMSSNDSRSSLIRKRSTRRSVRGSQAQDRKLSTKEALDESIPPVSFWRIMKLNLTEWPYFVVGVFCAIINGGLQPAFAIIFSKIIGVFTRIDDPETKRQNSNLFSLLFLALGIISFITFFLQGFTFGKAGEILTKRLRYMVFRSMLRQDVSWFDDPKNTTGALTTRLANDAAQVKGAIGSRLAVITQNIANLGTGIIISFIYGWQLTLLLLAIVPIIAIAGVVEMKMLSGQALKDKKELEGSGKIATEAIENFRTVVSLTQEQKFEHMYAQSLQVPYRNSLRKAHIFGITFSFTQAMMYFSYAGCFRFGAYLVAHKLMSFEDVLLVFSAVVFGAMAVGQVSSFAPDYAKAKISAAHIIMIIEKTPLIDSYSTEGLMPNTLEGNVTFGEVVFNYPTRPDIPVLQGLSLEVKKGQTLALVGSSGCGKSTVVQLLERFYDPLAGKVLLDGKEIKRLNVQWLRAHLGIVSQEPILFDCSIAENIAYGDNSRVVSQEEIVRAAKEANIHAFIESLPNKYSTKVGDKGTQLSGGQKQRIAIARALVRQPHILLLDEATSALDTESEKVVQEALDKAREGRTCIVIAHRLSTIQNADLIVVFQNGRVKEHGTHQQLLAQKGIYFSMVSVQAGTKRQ
Test: ATPase stimulation assay (ABCB1 expressed in High Five insect cells); supported by [3H]-paclitaxel accumulation and efflux in SW620/Ad300 cells
Format: biochemical
experimental-readout: EC50 (nM)
Answers are plain numbers, in nM.

EC50 lookup needed for C=CC(=O)N1CCC(Oc2cc3c(Nc4ccc(Cl)c(Cl)c4F)ncnc3cc2OC)CC1 , thanks.
20

// data source = paper PMC7694178
